Biological target: T1, monkey CD3e (Macaca fascicularis) on PBMC (Macaca fascicularis, UniProt Q95LI5 22-198)
T1 construct: Target on PBMC from Macaca fascicularis; also called mfCD3e; monkey PBMC
T1 sequence (Q95LI5 22-198 limits assumed): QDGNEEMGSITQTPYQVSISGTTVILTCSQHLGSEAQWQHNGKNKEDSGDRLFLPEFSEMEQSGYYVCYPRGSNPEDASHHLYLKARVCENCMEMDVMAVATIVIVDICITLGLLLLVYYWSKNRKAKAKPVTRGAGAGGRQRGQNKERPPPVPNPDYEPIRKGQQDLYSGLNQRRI
Assay: flow cytometry, Macaca fascicularis PBMC, antibody concentration not given, anti-human IgG Fc-Alexa Fluor647 (1:500), anti-hTcRβ-PerCP (1:30)
Description: A 96-well plate was prepared. 25 ul of cell suspension was added to each well. Anti-hCD3 antibodies were added to the 96-well plate. The cells and the antibodies were incubated for 15 minutes at 4° C. 185 ul PBS was then added to each well. After centrifuge at 2000 rpm for 5 minutes, the medium was discarded. The samples were washed again. 25 ul of PBS was then added to resuspend cells. Anti-human IgG Fc-Alexa Fluror647 (1:500) and anti-hTcRβ PerCP (1:30) were then added to each well. […]
Binary label based on upper left quadrant, percent of cells AF647+ / hTcRβ-PerCP- with cut-off 80%: below gives criterion met, not below gives criterion not met.

binder | category-label
1B1-H1K3-IgG1-LALA (antibody, V domains shown, Humanized; human IgG1 with LALA mutations; also called H1K3 (humanized 1B1)) VH: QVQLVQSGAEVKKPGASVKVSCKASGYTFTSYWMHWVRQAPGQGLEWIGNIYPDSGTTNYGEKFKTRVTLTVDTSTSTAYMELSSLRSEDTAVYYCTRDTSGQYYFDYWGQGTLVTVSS VL: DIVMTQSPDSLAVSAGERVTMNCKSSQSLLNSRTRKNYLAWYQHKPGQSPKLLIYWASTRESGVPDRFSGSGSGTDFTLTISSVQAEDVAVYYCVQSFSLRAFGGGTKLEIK | criterion not met
10A4-H1K2-IgG1-LALA (antibody, V domains shown, Humanized; human IgG1 with LALA mutations; also called H1K2 (humanized 10A4)) VH: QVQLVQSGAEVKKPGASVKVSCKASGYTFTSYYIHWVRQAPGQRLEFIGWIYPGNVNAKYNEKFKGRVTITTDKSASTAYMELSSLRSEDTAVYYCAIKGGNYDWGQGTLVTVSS VL: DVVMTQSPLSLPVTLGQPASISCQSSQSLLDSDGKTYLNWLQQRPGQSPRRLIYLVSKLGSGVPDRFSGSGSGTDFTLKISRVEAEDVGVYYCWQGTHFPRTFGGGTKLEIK | criterion met
10A4-H1K1-IgG1-LALA (antibody, V domains shown, Humanized; human IgG1 with LALA mutations; also called H1K1 (humanized 10A4)) VH: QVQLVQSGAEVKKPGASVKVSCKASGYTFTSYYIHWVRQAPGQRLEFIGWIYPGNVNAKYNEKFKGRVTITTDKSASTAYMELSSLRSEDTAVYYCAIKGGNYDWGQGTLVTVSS VL: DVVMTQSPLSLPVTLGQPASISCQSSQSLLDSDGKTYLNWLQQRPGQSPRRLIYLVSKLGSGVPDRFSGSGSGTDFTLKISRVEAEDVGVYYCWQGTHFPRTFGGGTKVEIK | criterion met
1B1-H4K3-IgG1-LALA (antibody, V domains shown, Humanized; human IgG1 with LALA mutations; also called H4K3 (humanized 1B1)) VH: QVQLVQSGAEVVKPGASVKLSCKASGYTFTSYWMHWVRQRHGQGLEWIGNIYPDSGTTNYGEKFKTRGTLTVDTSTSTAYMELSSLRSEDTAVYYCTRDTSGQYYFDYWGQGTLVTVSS VL: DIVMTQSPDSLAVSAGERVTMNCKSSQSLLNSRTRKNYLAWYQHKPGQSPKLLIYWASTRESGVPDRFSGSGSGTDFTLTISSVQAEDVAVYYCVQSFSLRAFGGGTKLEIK | criterion not met
